Parameter: Φ (quantum yield of fluorescence). Scope: all listed entries.
assay_summary: Photophysical properties of dyes in various solvents (absorbance, emission, quantum yield)
Assay type: physicochemical
condition: solvent C6H6
Enter the number alone.

chemical_string | Φ (quantum yield of fluorescence)
CCN1\C(=C/C=C/C=C2/C(=O)c3ccccc3S2(=O)=O)Sc2ccccc21 | 0.16

// query What does the data say about its Φ (quantum yield of fluorescence)? Entry: CCN1/C(=C\C=C\C=C2C(=O)N(C)C(=S)N(C)C2=O)Sc2ccccc21
// result 0.37

// query What does the data say about its Φ (quantum yield of fluorescence)? Entry: CN1\C(=C/C=C/C=C2/C(=O)c3ccccc3S2(=O)=O)C(C)(C)c2ccccc21
// result 0.42

// query What does the data say about its Φ (quantum yield of fluorescence)? Entry: CN1C(=O)C(=C/C=C/C=C2\N(C)c3ccccc3C2(C)C)C(=O)N(C)C1=S
// result 0.20

====

Parameter: Φ (quantum yield of fluorescence). Scope: all listed entries.
assay_summary: Photophysical properties of dyes in various solvents (absorbance, emission, quantum yield)
Type: physicochemical
condition: reactive forms, solvent MeOH

chemical_string | Φ (quantum yield of fluorescence)
O=C(CSCCO)Nc1ccc2c(c1)S\C(=C/C=C/C=C1/C(=O)c3ccccc3S1(=O)=O)N2CCCS(=O)(=O)[O-].[Na+] | 0.054
CC1(C)/C(=C/C=C/C=C2/C(=O)c3ccccc3S2(=O)=O)N(CCCS(=O)(=O)[O-])c2ccc(NC(=O)CI)cc21.[Na+] | 0.01
O=C(CI)Nc1ccc2c(c1)S/C(=C/C=C/C=C1/C(=O)c3ccccc3S1(=O)=O)N2CCCS(=O)(=O)[O-].[Na+] | 0.034
CN(C(=O)COCC(=O)ON1C(=O)CCC1=O)c1ccc2c(c1)C(C)(C)/C(=C/C=C/C=C1/C(=O)c3ccccc3S1(=O)=O)N2CCCS(=O)(=O)[O-].[Na+] | 0.05

Now let's try a different one.
// query What does the data say about its Φ (quantum yield of fluorescence)? Entry: CC1(C)\C(=C/C=C/C=C2/C(=O)c3ccccc3S2(=O)=O)N(CCCS(=O)(=O)[O-])c2ccc(NC(=O)CSCCO)cc21.[Na+]
// result 0.04

====

assay_summary: Photophysical properties of dyes in various solvents (absorbance, emission, quantum yield)
Type: physicochemical
condition: solvent DMF
metric_name: Φ (quantum yield of fluorescence)
Enter the number alone.

molecule | numeric_value
CCN1/C(=C\C=C\C=C2C(=O)N(C)C(=S)N(C)C2=O)Sc2ccccc21 [dye 1b] | 0.32

// query What does the data say about its Φ (quantum yield of fluorescence)? Entry: CN1C(=O)C(=C/C=C/C=C2\N(C)c3ccccc3C2(C)C)C(=O)N(C)C1=S [dye 3a]
// result 0.94

// query What does the data say about its Φ (quantum yield of fluorescence)? Entry: CCN1\C(=C/C=C/C=C2/C(=O)c3ccccc3S2(=O)=O)Sc2ccccc21 [dye 2a]
// result 0.22

// query What does the data say about its Φ (quantum yield of fluorescence)? Entry: CN1\C(=C/C=C/C=C2/C(=O)c3ccccc3S2(=O)=O)C(C)(C)c2ccccc21 [dye 4a]
// result 0.97

====

assay_summary: Photophysical properties of dyes in various solvents (absorbance, emission, quantum yield)
Assay type: physicochemical
Design: unit not given here
condition: solvent OcOH
metric_name: ε × F
Enter the number alone.

// solved cases for ε × F follow
chemical_string | ε × F
CN1C(=O)C(=C/C=C/C=C2\N(C)c3ccccc3C2(C)C)C(=O)N(C)C1=S | 178000
CCN1\C(=C/C=C/C=C2/C(=O)c3ccccc3S2(=O)=O)Sc2ccccc21 | 29000
CCN1/C(=C\C=C\C=C2C(=O)N(C)C(=S)N(C)C2=O)Sc2ccccc21 | 115000

Now let's try a different one.
// query What does the data say about its ε × F? Entry: CN1\C(=C/C=C/C=C2/C(=O)c3ccccc3S2(=O)=O)C(C)(C)c2ccccc21
// result 123000

====

assay_summary: Photophysical properties of dyes in various solvents (absorbance, emission, quantum yield)
Assay type: physicochemical
condition: reactive forms, solvent H2O
metric_name: Emission λmax (nm)
Give the value in nm but do not write nm after it.

// solved cases for Emission λmax follow
compound | Emission λmax, nm
CC1(C)\C(=C/C=C/C=C2/C(=O)c3ccccc3S2(=O)=O)N(CCCS(=O)(=O)[O-])c2ccc(NC(=O)CSCCO)cc21.[Na+] [dye 4g] | 620
O=C(CI)Nc1ccc2c(c1)S/C(=C/C=C/C=C1/C(=O)c3ccccc3S1(=O)=O)N2CCCS(=O)(=O)[O-].[Na+] [dye 2e] | 618
CC1(C)/C(=C/C=C/C=C2/C(=O)c3ccccc3S2(=O)=O)N(CCCS(=O)(=O)[O-])c2ccc(NC(=O)CI)cc21.[Na+] [dye 4e] | 630

Now let's try a different one.
// query What does the data say about its Emission λmax? Entry: CN(C(=O)COCC(=O)ON1C(=O)CCC1=O)c1ccc2c(c1)C(C)(C)/C(=C/C=C/C=C1/C(=O)c3ccccc3S1(=O)=O)N2CCCS(=O)(=O)[O-].[Na+] [dye 4f]
// result 616

====

assay_summary: Photophysical properties of dyes in various solvents (absorbance, emission, quantum yield)
Format: physicochemical
condition: solvent DMF
metric_name: Abs. λmax (nm)
Give the value in nm but do not write nm after it.

compound | Abs. λmax / nm
CN1\C(=C/C=C/C=C2/C(=O)c3ccccc3S2(=O)=O)C(C)(C)c2ccccc21 [dye 4a] | 586
CCN1\C(=C/C=C/C=C2/C(=O)c3ccccc3S2(=O)=O)Sc2ccccc21 [dye 2a] | 602
CN1C(=O)C(=C/C=C/C=C2\N(C)c3ccccc3C2(C)C)C(=O)N(C)C1=S [dye 3a] | 589

Now let's try a different one.
// query What does the data say about its Abs. λmax? Entry: CCN1/C(=C\C=C\C=C2C(=O)N(C)C(=S)N(C)C2=O)Sc2ccccc21 [dye 1b]
// result 595

====

Parameter: ε × F. Scope: all listed entries.
assay_summary: Photophysical properties of dyes in various solvents (absorbance, emission, quantum yield)
Assay type: physicochemical
Set-up: unit not given here
condition: solvent MeOH
Enter the number alone.

// solved cases for ε × F follow
chemical_string | metric_name | numeric_value
CCN1\C(=C/C=C/C=C2/C(=O)c3ccccc3S2(=O)=O)Sc2ccccc21 | ε × F | 7000
CN1C(=O)C(=C/C=C/C=C2\N(C)c3ccccc3C2(C)C)C(=O)N(C)C1=S | ε × F | 45000
CN1\C(=C/C=C/C=C2/C(=O)c3ccccc3S2(=O)=O)C(C)(C)c2ccccc21 | ε × F | 12000

Now let's try a different one.
// query What does the data say about its ε × F? Entry: CCN1/C(=C\C=C\C=C2C(=O)N(C)C(=S)N(C)C2=O)Sc2ccccc21
// result 18000

====

assay_summary: Photophysical properties of dyes in various solvents (absorbance, emission, quantum yield)
Assay type: physicochemical
condition: solvent OcOH
metric_name: Abs. λmax

// solved cases for Abs. λmax follow
chemical_string | result
CN1C(=O)C(=C/C=C/C=C2\N(C)c3ccccc3C2(C)C)C(=O)N(C)C1=S | 590 nm
CCN1/C(=C\C=C\C=C2C(=O)N(C)C(=S)N(C)C2=O)Sc2ccccc21 | 598 nm
CCN1\C(=C/C=C/C=C2/C(=O)c3ccccc3S2(=O)=O)Sc2ccccc21 | 606 nm

Now let's try a different one.
// query What does the data say about its Abs. λmax? Entry: CN1\C(=C/C=C/C=C2/C(=O)c3ccccc3S2(=O)=O)C(C)(C)c2ccccc21
// result 587 nm

====

assay_summary: Photophysical properties of dyes in various solvents (absorbance, emission, quantum yield)
Type: physicochemical
condition: solvent OcOH
metric_name: Φ (quantum yield of fluorescence)
Enter the number alone.

// solved cases for Φ (quantum yield of fluorescence) follow
chemical_string | metric_name | numeric_value
CN1C(=O)C(=C/C=C/C=C2\N(C)c3ccccc3C2(C)C)C(=O)N(C)C1=S | Φ (quantum yield of fluorescence) | 0.99
CN1\C(=C/C=C/C=C2/C(=O)c3ccccc3S2(=O)=O)C(C)(C)c2ccccc21 | Φ (quantum yield of fluorescence) | 0.98
CCN1/C(=C\C=C\C=C2C(=O)N(C)C(=S)N(C)C2=O)Sc2ccccc21 | Φ (quantum yield of fluorescence) | 0.52

Now let's try a different one.
// query What does the data say about its Φ (quantum yield of fluorescence)? Entry: CCN1\C(=C/C=C/C=C2/C(=O)c3ccccc3S2(=O)=O)Sc2ccccc21
// result 0.17

====

Parameter: Abs. λmax. Scope: all listed entries.
assay_summary: Photophysical properties of dyes in various solvents (absorbance, emission, quantum yield)
Format: physicochemical
condition: solvent C6H6
Give the value in nm but do not write nm after it.

chemical_string | metric_name | numeric_value
CCN1\C(=C/C=C/C=C2/C(=O)c3ccccc3S2(=O)=O)Sc2ccccc21 | Abs. λmax | 591

// query What does the data say about its Abs. λmax? Entry: CN1C(=O)C(=C/C=C/C=C2\N(C)c3ccccc3C2(C)C)C(=O)N(C)C1=S
// result 584

// query What does the data say about its Abs. λmax? Entry: CCN1/C(=C\C=C\C=C2C(=O)N(C)C(=S)N(C)C2=O)Sc2ccccc21
// result 600

// query What does the data say about its Abs. λmax? Entry: CN1\C(=C/C=C/C=C2/C(=O)c3ccccc3S2(=O)=O)C(C)(C)c2ccccc21
// result 571
